Taken from patent US20240116985A1.

Here the recorded pIC50 is given for each entry.
MEASURED_TARGET: beta-catenin/TCF4 engagement (Homo sapiens)
Construct: expressed in transfected cells; host or cells: HEK293
Sequence (P35222 1-781): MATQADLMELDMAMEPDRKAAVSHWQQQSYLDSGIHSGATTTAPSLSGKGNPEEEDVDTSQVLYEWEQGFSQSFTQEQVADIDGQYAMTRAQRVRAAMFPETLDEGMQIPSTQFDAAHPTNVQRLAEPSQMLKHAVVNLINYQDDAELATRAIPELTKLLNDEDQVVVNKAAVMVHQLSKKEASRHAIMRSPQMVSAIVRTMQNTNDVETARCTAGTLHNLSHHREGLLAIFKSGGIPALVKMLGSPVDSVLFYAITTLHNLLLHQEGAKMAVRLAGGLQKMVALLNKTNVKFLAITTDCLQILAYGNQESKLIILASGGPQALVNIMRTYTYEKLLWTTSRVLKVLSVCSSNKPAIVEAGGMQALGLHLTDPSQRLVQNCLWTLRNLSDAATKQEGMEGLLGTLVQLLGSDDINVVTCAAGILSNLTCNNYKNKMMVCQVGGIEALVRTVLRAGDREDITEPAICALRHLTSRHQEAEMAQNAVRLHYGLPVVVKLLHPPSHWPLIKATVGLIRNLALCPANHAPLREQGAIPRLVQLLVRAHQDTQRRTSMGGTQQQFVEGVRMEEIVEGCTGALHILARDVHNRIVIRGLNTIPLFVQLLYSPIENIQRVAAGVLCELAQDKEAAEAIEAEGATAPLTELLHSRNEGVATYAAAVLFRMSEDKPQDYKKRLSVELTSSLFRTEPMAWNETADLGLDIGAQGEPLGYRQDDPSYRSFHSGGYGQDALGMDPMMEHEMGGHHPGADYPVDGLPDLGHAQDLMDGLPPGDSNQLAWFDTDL
EXPERIMENT_NOTES: Nano-BRET target engagement assay (B-cat-Halo & TCF4-Luc in HEK293 cells)
Assay type: cell-based
TEST_CONDITIONS: absolute IC50; read-out: NanoBRET Abs IC50
Bear in mind: pIC50 is minus log10 of a mol/L concentration; give just that figure.

COMPOUND	pIC50
CC(=O)N1CCC[C@]12CC=CCCCC1(CCCC=CCCCOC(=O)N3CC[C@@](C(=O)N[C@@H](Cc4ccsc4)C(=O)N[C@@H](Cc4csc5ccccc45)C(=O)N[C@@H](CCC(N)=O)C(N)=O)(C3)NC(=O)[C@H](CC(N)=O)NC(=O)[C@H](Cc3ccccc3)NC(=O)[C@H](C)NC(=O)[C@H](C)NC(=O)[C@H](CN(CC(=O)O)Cc3c(F)c(F)c(F)c(F)c3F)NC(=O)[C@H](CC(=O)O)NC1=O)NC(=O)[C@H](CC(C)(C)C)NC(=O)[C@H](CC(=O)O)NC2=O (some centres unmarked) [I-1638]	4.84

Proceed to the following item.
Supply measured pIC50 of CC(=O)N1CCC[C@]12CC=CCCCC1(CCCC=CCCCOC(=O)N3CC[C@@](C(=O)N[C@@H](Cc4ccccc4C(F)(F)F)C(=O)N[C@@H](Cc4ccc(C)c(C)c4)C(=O)N[C@@H](CO)C(N)=O)(C3)NC(=O)[C@H](CC(C)C)NC(=O)[C@H](Cc3ccccc3)NC(=O)[C@H](C)NC(=O)[C@H](C)NC(=O)[C@H](Cc3cccc(C(=O)O)c3)NC(=O)[C@H](CC(=O)O)NC1=O)NC(=O)[C@H](CC(C)(C)C)NC(=O)[C@H](CC(=O)O)NC2=O (some centres unmarked) in your reply.
5.24
